The reported numbers originate from patent US20240150300A1.

- System: WILL-1
- Assay details: Antiproliferative activity, CCK-8, WILL-1
- Format: cell-based
- Experimental setup: WILL-1, Diffuse large B-cell lymphoma; read-out: Cytotoxicity (IC50 μM)
Experimental endpoint: IC50

• C[C@@H](c1ccc(C(=O)Nc2ccc(F)cc2N)cc1)n1nc(-c2ccc(CN(C)C)cc2)ccc1=O = 0.116 µM

###

- Test system: WILL-2
- Assay details: Antiproliferative activity, CCK-8, WILL-2
- Assay type: cell-based
- Experimental setup: WILL-2, Diffuse large B-cell lymphoma; read-out: Cytotoxicity (IC50 μM)
Experimental endpoint: IC50 (µM)

* C[C@@H](c1ccc(C(=O)Nc2ccc(F)cc2N)cc1)n1nc(-c2ccc(CN(C)C)cc2)ccc1=O [Compound I-1] | 0.347
